Entries and their Concentration of the target in the solution measured after different incubation time
- assay-procedure: Binary supramolecular self-assembly systems of polymer and target: guest concentration over incubation time (Comparative Example 2)
- Assay type: physicochemical
- condition-details: binary system with 0.5% polymer 102; incubation 3 h
outcome-measure: Concentration of the target in the solution measured after different incubation time (µg/mL)

{"compound": "COc1cc(/C=C/C(=O)CC(=O)/C=C/c2ccc(O)c(OC)c2)ccc1O", "uom": "µg/mL", "numeric-result": 643.4}
{"compound": "CC1=C[C@H](O)CC(C)(C)[C@H]1/C=C/C(C)=C/C=C/C(C)=C/C=C/C=C(C)/C=C/C=C(C)/C=C/C1=C(C)C[C@@H](O)CC1(C)C", "uom": "µg/mL", "numeric-result": 16.9}
{"compound": "CNC(=O)c1cc(Oc2ccc(NC(=O)Nc3ccc(Cl)c(C(F)(F)F)c3)cc2)ccn1", "uom": "µg/mL", "numeric-result": 151.8}
{"compound": "CC(=O)c1c(C)c2cnc(Nc3ccc(N4CCNCC4)cn3)nc2n(C2CCCC2)c1=O", "uom": "µg/mL", "numeric-result": 167.0}
{"compound": "COC1=CC(=O)C[C@@H](C)[C@]12Oc1c(Cl)c(OC)cc(OC)c1C2=O", "uom": "µg/mL", "numeric-result": 23.2}
{"compound": "CCCCC1OC(=O)c2ccccc21 (stereo not shown) [Butylphthalide]", "uom": "µg/mL", "numeric-result": 245.3}
{"compound": "CC1=C(/C=C/C(C)=C/C=C/C(C)=C/CO)C(C)(C)CCC1", "uom": "µg/mL", "numeric-result": 80.2}
{"compound": "CC#CC(=O)N1CCC[C@H]1c1nc(-c2ccc(C(=O)Nc3ccccn3)cc2)c2c(N)nccn12", "uom": "µg/mL", "numeric-result": 580.9}
{"compound": "COC(=O)[C@H](c1ccccc1Cl)N1CCc2sccc2C1", "uom": "µg/mL", "numeric-result": 28.5}
{"compound": "Cc1c(C)c2c(c(C)c1O)CC[C@@](C)(CCC[C@H](C)CCC[C@H](C)CCCC(C)C)O2", "uom": "µg/mL", "numeric-result": 57.9}
{"compound": "CCOC(=O)C1=C(C)NC(C)=C(C(=O)OC)C1c1cccc(Cl)c1Cl (stereo not shown)", "uom": "µg/mL", "numeric-result": 472.0}
{"compound": "CCCNS(=O)(=O)Nc1ncnc(OCCOc2ncc(Br)cn2)c1-c1ccc(Br)cc1", "uom": "µg/mL", "numeric-result": 71.5}
{"compound": "C=C(C)[C@@H]1CCC(C)=C[C@H]1c1c(O)cc(CCCCC)cc1O", "uom": "µg/mL", "numeric-result": 323.6}
{"compound": "Cc1ccc(-c2cc(C(F)(F)F)nn2-c2ccc(S(N)(=O)=O)cc2)cc1", "uom": "µg/mL", "numeric-result": 11.1}
{"compound": "CCCSc1nc(N[C@@H]2C[C@H]2c2ccc(F)c(F)c2)c2nnn([C@@H]3C[C@H](OCCO)[C@@H](O)[C@H]3O)c2n1", "uom": "µg/mL", "numeric-result": 166.0}
{"compound": "C=CC(=O)N1CCC[C@@H](n2nc(-c3ccc(Oc4ccccc4)cc3)c3c(N)ncnc32)C1", "uom": "µg/mL", "numeric-result": 176.4}
